target: T1, 630 SLP (surface layer protein of C. difficile strain 630, HMW and LMW subunits) (Clostridioides difficile 630 (ribotype …, UniProt Q183M8, strain)); assay: ELISA; monoclonal phage ELISA: phage-displayed VHHs on immobilized SLPs; conditions: one partner purified
T1 construct: low-molecular-weight (LMW) subunit of the surface layer protein, cut from the precursor SlpA by Cwp84, C. difficile strain 630 (ribotype 012); predicted mass 34.2 kDa; high-molecular-weight (HMW) subunit of the surface layer protein, cut from the precursor SlpA by Cwp84, C. difficile strain 630 (ribotype 012); predicted mass 39.5 kDa; Both subunits come from one precursor, SlpA; source: purified …
READOUT_NAME: binding result

SLP_VHH22 displayed on phage (VHH, as the VHH of m4) VHH: QVQLVESGGGLVQPGGSLRLSCAASGFTLDSYAIGWFRQAPGKEHEGISCISSNGGSTYYTDSVKGRFTISRDNAKNTVYLQMNSLESEDSAVYYCATVRRCSSLDMALGALATRTKGYDYWGQGTQVTVSS ... no binding
SLP_VHH46 displayed on phage (VHH, as the VHH of m7) VHH: QVKLEESGGGLVQAGGSLRLSCADSERTFRIYTMAWFRQAPGKERDFVAAISWSGGSTYYADSVKGRFTISRDNAKNTVYLPMNSLKPDDTAVYYCASGGVLSTGSQSDSEYDFWGQGTQVTVSS ... no binding
